Test system: Klebsiella aerogenes DSM 30053
Test: growth (OD595) fold change vs plate DMSO controls (fold change (ratio)); higher = more growth
Settings: incubation time: 27 h, anaerobic, 37 °C
Counter-ions that a name gives are not always drawn.
observable: growth
Just the number.

CN(C)CCOC1=Cc2ccccc2Sc2ccc(Cl)cc21 [Zotepine] (20 µM)	1.05
CC(=O)N(CC(C)C(=O)O)c1c(I)cc(I)c(N)c1I (stereo unspecified) [Iocetamic acid] (20 µM)	0.986
CC(=O)CCCCn1c(=O)c2c(ncn2C)n(C)c1=O [Pentoxifylline] (20 µM)	1.06
O=C(c1ccc(F)cc1)C1CCN(CCn2c(=O)[nH]c3ccccc3c2=O)CC1 [Ketanserin tartrate hydrate] (20 µM)	1.02
NC(=O)[C@@H]1CCCN1C(=O)[C@H](Cc1c[nH]cn1)NC(=O)[C@@H]1CCC(=O)N1 [Thyrotropin-Releasing Hormone] (20 µM)	1.02

Prompt line: Sample COc1cc(Cc2cnc(N)nc2N)cc(OC)c1OC [Trimethoprim] (20 µM) — what was its growth?
Response line: 0.472

Prompt line: Sample CC(=O)Oc1cc(C(C)C)c(OCCN(C)C)cc1C [Moxisylyte hydrochoride] (20 µM) — what was its growth?
Response line: 1.03

Prompt line: Sample O=C1c2ccccc2C(=O)C1c1ccccc1 [Phenindione] (20 µM) — what was its growth?
Response line: 0.969

Prompt line: Sample CC(=O)OCC(=O)[C@@]1(OC(C)=O)[C@@H](C)C[C@H]2[C@@H]3C[C@H](F)C4=CC(=O)C=C[C@]4(C)[C@@]3(F)[C@@H](O)C[C@@]21C [Diflorasone Diacetate] (20 µM) — what was its growth?
Response line: 0.978

Prompt line: Sample C=C1C[C@@]23CC[C@H]4[C@@](C)(CCC[C@@]4(C)C(=O)O[C@@H]4O[C@H](CO)[C@@H](O)[C@H](O)[C@H]4O)[C@@H]2CC[C@]1(O[C@@H]1O[C@H](CO)[C@@H](O)[C@H](O)[C@H]1O[C@@H]1O[C@H](CO)[C@@H](O)[C@H](O)[C@H]1O)C3 [Stevioside] (50 µM) — what was its growth?
Response line: 0.995

Prompt line: Sample Nc1ccn([C@@H]2O[C@H](CO)[C@@H](O)C2(F)F)c(=O)n1 [Gemcitabine] (20 µM) — what was its growth?
Response line: 0.294

Prompt line: Sample CN1CC(O)c2cc(N=NC(N)=O)c(O)cc21 (stereo unspecified) [Carbazochrome] (20 µM) — what was its growth?
Response line: 0.984

Prompt line: Sample COC1=CC(=O)C[C@@H](C)[C@]12Oc1c(Cl)c(OC)cc(OC)c1C2=O [Griseofulvin] (20 µM) — what was its growth?
Response line: 0.922

Prompt line: Sample CCN(CC)CCNC(=O)c1cc(Br)c(N)cc1OC [Bromopride] (20 µM) — what was its growth?
Response line: 1.05

Prompt line: Sample Nc1ccccc1S(N)(=O)=O [o-Sulfanilamide] (20 µM) — what was its growth?
Response line: 1.01

Prompt line: Sample N=C(N)N1CCc2ccccc2C1 [Debrisoquin sulfate] (20 µM) — what was its growth?
Response line: 1.02

Prompt line: Sample O=C1CC[C@@H](C(=O)N2CSC[C@H]2C(=O)O)N1 [Pidotimod] (20 µM) — what was its growth?
Response line: 1.02

Prompt line: Sample Nc1ccc(S(=O)(=O)NC(=O)c2ccccc2)cc1 [Sulfabenzamide] (20 µM) — what was its growth?
Response line: 1.05
